- EXPERIMENTAL_SYSTEM: Inhibitor of nuclear factor kappa-B kinase subunit beta (Homo sapiens)
- Sequence (O14920 whole entry): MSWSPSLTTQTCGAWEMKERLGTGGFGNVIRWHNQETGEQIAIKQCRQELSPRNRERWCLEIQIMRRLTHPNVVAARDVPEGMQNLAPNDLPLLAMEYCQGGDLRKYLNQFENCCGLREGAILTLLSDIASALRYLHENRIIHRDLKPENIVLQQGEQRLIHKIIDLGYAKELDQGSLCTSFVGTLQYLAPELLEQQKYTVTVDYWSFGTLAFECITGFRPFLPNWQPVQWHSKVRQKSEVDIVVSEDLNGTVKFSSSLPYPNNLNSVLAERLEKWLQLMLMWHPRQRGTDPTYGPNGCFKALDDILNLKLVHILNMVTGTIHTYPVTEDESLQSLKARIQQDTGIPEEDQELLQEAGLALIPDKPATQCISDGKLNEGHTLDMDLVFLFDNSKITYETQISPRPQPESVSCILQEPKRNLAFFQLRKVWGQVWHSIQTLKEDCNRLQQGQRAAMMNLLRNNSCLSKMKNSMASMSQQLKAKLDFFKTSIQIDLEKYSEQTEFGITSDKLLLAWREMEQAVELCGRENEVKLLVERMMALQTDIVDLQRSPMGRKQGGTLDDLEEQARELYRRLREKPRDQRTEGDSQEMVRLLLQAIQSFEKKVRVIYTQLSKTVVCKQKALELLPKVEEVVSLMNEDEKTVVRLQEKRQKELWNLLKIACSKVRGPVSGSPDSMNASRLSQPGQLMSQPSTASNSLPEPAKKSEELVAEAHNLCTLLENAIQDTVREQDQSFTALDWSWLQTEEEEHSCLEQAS
- PROTOCOL_DESCRIPTION: Inhibition of IKK-beta
pIC50: −log10 of the molar value.
VALUE_TYPE: pIC50

Determine its reported pIC50: COc1ccc(-n2cnc3ccc(-c4nnc(SCc5cccc(C#N)c5)o4)cc32)cc1 < 5.00

----------
- PROTOCOL_DESCRIPTION: Total clearance in rat at 0.1 mg/kg, iv
- Type: ADME, organism-based
- Set-up: dose 0.1 mg/kg, route intravenous
- ASSAY_CONDITIONS: in vivo
VALUE_TYPE: clearance (mL/min/kg)
One number for each entry, in mL/min/kg.

Determine its reported clearance: COc1ccc(-n2cnc3ccc(-c4nnc(SCc5cccc(C#N)c5)o4)cc32)cc1 35.6

----------
Entries below carry reported IC50 on Glycogen synthase kinase-3 beta (Homo sapiens, UniProt P49841).
Sequence (P49841 whole entry): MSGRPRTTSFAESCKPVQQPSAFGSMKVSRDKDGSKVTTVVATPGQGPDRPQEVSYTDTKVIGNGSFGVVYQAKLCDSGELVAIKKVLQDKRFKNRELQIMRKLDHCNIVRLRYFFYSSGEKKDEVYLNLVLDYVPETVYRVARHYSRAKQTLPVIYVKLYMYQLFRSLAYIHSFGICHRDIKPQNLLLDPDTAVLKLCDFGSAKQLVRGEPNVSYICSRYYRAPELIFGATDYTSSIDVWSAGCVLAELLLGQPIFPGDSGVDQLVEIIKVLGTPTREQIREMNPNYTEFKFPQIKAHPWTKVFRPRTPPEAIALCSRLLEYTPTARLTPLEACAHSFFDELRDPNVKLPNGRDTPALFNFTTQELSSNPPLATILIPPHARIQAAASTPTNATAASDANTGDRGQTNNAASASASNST
Answers are plain numbers, in nM.

Worked set:
STRUCTURE: COc1ccc(CSc2nnc(-c3ccc4ncsc4c3)o2)cc1C(F)(F)F
READOUT_UNIT: nM
IC50: 3.1

STRUCTURE: N#Cc1cccc(CSc2nnc(-c3ccc4c(c3)CCO4)o2)c1
READOUT_UNIT: nM
IC50: 91

STRUCTURE: COc1ccc(CSc2nnc(-c3ccc4c(c3)CCO4)o2)cc1F
READOUT_UNIT: nM
IC50: 44

Determine its reported IC50: COc1ccc(CSc2nnc(-c3ccc4c(c3)CCO4)o2)cc1Cl 13

----------
- EXPERIMENTAL_SYSTEM: Receptor tyrosine-protein kinase erbB-2 (Homo sapiens)
- Sequence (P04626 whole entry): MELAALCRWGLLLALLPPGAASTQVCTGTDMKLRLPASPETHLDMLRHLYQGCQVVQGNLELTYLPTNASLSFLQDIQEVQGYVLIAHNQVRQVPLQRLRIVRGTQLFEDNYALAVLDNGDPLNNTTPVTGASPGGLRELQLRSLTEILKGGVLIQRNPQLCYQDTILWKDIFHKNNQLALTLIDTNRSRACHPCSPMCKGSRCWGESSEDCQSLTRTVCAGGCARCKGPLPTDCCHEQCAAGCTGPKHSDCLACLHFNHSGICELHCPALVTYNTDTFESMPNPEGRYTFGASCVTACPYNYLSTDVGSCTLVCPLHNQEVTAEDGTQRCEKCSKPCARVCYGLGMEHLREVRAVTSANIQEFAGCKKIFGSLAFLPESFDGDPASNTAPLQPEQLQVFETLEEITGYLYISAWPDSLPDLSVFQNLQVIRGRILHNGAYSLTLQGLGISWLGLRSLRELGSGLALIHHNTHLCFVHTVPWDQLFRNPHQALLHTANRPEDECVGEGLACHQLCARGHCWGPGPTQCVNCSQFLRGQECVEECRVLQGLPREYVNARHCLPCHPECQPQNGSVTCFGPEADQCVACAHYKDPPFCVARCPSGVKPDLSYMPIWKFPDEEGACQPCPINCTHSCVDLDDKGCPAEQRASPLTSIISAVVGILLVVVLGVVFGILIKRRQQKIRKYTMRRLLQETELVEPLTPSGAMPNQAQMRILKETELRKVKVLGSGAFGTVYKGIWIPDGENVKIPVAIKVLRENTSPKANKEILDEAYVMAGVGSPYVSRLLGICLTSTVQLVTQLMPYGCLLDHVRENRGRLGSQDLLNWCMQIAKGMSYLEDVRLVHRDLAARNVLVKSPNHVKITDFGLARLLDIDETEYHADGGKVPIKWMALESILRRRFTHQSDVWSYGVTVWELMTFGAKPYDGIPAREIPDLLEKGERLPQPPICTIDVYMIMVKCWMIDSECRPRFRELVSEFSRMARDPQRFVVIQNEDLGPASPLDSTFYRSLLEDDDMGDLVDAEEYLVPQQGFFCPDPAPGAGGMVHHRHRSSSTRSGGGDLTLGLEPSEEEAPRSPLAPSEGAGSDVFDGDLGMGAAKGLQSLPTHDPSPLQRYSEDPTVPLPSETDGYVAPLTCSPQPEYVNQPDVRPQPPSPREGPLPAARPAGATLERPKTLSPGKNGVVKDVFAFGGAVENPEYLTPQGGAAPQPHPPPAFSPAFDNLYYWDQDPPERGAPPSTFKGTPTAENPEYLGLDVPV
VALUE_TYPE: IC50

Determine its reported IC50: COc1ccc(-n2cnc3ccc(-c4nnc(SCc5cccc(C#N)c5)o4)cc32)cc1 > 10 µM

----------
- EXPERIMENTAL_SYSTEM: Tyrosine-protein kinase Lck (Homo sapiens)
- Sequence (P06239 whole entry): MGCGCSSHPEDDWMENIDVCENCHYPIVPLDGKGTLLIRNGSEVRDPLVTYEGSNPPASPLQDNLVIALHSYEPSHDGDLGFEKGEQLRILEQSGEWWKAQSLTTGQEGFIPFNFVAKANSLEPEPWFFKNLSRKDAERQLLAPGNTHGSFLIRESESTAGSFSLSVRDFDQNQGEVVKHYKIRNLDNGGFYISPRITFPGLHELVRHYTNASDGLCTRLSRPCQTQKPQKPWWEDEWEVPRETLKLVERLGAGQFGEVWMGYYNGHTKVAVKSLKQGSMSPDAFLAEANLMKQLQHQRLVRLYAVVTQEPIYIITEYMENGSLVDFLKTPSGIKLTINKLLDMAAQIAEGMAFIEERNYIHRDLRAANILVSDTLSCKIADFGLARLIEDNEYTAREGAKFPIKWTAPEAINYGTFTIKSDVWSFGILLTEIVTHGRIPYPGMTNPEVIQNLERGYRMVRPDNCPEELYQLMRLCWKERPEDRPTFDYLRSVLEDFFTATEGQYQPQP
- PROTOCOL_DESCRIPTION: Inhibition of Lck
VALUE_TYPE: IC50

Determine its reported IC50: COc1ccc(-n2cnc3ccc(-c4nnc(SCc5cccc(C#N)c5)o4)cc32)cc1 > 10 µM

----------
- EXPERIMENTAL_SYSTEM: Protein kinase C theta type (Homo sapiens, UniProt Q04759)
- Sequence (Q04759 whole entry): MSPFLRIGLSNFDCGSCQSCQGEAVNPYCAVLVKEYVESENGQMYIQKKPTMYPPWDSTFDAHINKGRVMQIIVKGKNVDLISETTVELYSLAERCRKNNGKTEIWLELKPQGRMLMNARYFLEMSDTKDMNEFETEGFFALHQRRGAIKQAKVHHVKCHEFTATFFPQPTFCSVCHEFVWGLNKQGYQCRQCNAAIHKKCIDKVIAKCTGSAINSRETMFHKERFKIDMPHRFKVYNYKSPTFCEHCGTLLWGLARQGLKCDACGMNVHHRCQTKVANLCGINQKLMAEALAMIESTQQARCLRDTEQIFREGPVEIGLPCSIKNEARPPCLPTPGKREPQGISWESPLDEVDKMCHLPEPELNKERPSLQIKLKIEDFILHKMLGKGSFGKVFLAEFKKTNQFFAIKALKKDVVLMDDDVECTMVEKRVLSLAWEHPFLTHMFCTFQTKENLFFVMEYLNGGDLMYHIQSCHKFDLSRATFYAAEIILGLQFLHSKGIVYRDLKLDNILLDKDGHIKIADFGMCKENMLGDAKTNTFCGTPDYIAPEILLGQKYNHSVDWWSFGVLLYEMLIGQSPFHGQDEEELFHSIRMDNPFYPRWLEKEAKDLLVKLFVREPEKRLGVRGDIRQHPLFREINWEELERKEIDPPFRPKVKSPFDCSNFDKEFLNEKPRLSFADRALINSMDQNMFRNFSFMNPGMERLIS
VALUE_TYPE: pIC50
Numbers only, as −log10 of the molar value.

Determine its reported pIC50: COc1ccc(-n2cnc3ccc(-c4nnc(SCc5cccc(C#N)c5)o4)cc32)cc1 5.46

----------
Entries below carry reported pIC50 on Glycogen synthase kinase-3 beta (Homo sapiens).
Give bare numbers, as −log10 of the molar value.

Worked set:
STRUCTURE: COc1ccc(CSc2nnc(-c3ccc4c(c3)CCO4)o2)cc1
pIC50: 6.66
//
STRUCTURE: Fc1cccc(SCc2nnc(-c3ccc4c(c3)CCO4)o2)c1
pIC50: 6.17
//
STRUCTURE: c1ccc(CSc2nnc(-c3ccc4c(c3)CCO4)o2)cc1
pIC50: 6.68
//
STRUCTURE: COc1ccc(-n2cnc3ccc(-c4nnc(SCc5ccc(OC)c(C(F)(F)F)c5)o4)cc32)cc1
pIC50: 8.07
//
STRUCTURE: Fc1cccc(CSc2nnc(-c3ccc4c(c3)CCO4)o2)c1
pIC50: 7.27

Kindly give each listed record's pIC50.
1. Cn1cnc2ccc(-c3nnc(SCc4cccc(C(F)(F)F)c4)o3)cc21
2. Clc1ccccc1CSc1nnc(-c2ccc3c(c2)CCO3)o1

1: 8.03; 2: 6.70

Kindly give each listed record's pIC50.
1. COc1ccc(-c2coc3ccc(-c4nnc(SCc5ccc(OC)c(C(F)(F)F)c5)o4)cc23)cc1
2. COc1ccc(CSc2nnc(-c3ccc4c(c3)CCO4)o2)cc1C(F)(F)F
3. COc1ccc(-c2coc3ccc(-c4nnc(SCc5cccc(C#N)c5)o4)cc23)cc1

7.60
8.24
8.46
